In this section we review reported melting point values for a set of compounds.

* N[C@@H](C[C@@H](CC#Cc1ccccc1)C(=O)O)C(=O)O | 164 to 166 °C
* Cn1c([N+](=O)[O-])cnc1-c1cc(CCC(=O)O)on1 | 114 °C
* COc1ccc(S(=O)(=O)N(Cc2ccccc2)C(C(=O)NO)C(O)C(C)C)cc1 (centres undefined) | 81 to 82 °C
* CC(=O)Oc1cc(C)c(C)cc1C1(OC(C)=O)C(=O)c2ccccc2C1=O | 206 to 207 °C
* O=C(Cc1ccccc1)NC1CN(C(C(=O)OCc2ccccc2)c2ccccc2)C1=O (centres undefined) | 96 to 98 °C

Next, consider the following compound.
Task item: Would you mind telling me what melting point value was observed for C=C1C(=O)N(CC(=O)O)C(=O)N1Cc1cccc([N+](=O)[O-])c1 ?
Reply: 169 to 171 °C

###

In this section we review reported melting point values for a set of compounds.

Below, each entry is followed by its recorded melting point result.
* Cc1ccc(S(=O)(=O)N2CCCC(CCl)C2)cc1 (stereo not given) | 100 to 102 °C
* Nc1c(F)c(F)c(F)c2c1c(=O)c(C(=O)O)cn2C1CC1 | 269 to 271 °C
* NCC1CCC(CNc2ncc3ncnc(Nc4ccc(F)c(Cl)c4)c3n2)CC1 (stereo not given) | 155 to 160 °C

Task item: Would you mind telling me what melting point value was observed for CCOC(=O)c1cnn2c(O)cc(-c3ccc(Cl)cc3)nc12 ?
Reply: 190 to 192 °C

Task item: Would you mind telling me what melting point value was observed for O=C(NCc1ccccc1-c1ccccc1C(=O)NCCc1ccccn1)c1ccccc1 ?
Reply: 135 °C

Task item: Would you mind telling me what melting point value was observed for CCOC(=O)c1csc(/C=C/c2cccc(NC(=O)Cc3ccccc3C(=O)O)c2)n1 ?
Reply: 221 to 223 °C

Task item: Would you mind telling me what melting point value was observed for CCOC(=O)C=Cc1cc(=O)c(C(=O)O)cn1-c1ccc(O)cc1C ?
Reply: 185 to 189 °C

Task item: Would you mind telling me what melting point value was observed for COc1ccc(Cc2ccc(C(=O)O)nc2)cc1 ?
Reply: 145 to 147 °C

Task item: Would you mind telling me what melting point value was observed for CCOC(=O)[C@@H](O)[C@@H]1OC(=O)c2c(OC)cc(OC)cc21 ?
Reply: 154 to 156 °C

Task item: Would you mind telling me what melting point value was observed for CNC(=O)NC(Cc1c[nH]c2ccccc12)C(=O)OCc1cc(C)cc(C)c1 (stereo not given) ?
Reply: 66 to 68 °C

Task item: Would you mind telling me what melting point value was observed for C#CC1(O)C(C)CC2(CC1(C)C)OC(C)C(C)O2 (stereo not given) ?
Reply: 79 to 83 °C

Task item: Would you mind telling me what melting point value was observed for Cc1ncsc1C(=O)CCCSc1nnnn1C ?
Reply: 64 to 65 °C

Task item: Would you mind telling me what melting point value was observed for Cc1cccc(N2C(=S)SC(C)C2(C)O)n1 (stereo not given) ?
Reply: 129 °C

Task item: Would you mind telling me what melting point value was observed for O=C(O)c1ccc2c(c1)Nc1ccccc1S2 ?
Reply: > 235 °C

Task item: Would you mind telling me what melting point value was observed for Cc1nnc2n1-c1sc(C#CCn3c(=O)c4ccccc4c4ccccc43)cc1C(c1ccccc1Cl)=NC2 ?
Reply: 247 to 249 °C

Task item: Would you mind telling me what melting point value was observed for CN(C(=O)OC(C)(C)C)[C@H]1CCN(C(=O)c2ccc(-c3[nH]nc4c3C(=O)c3c(NC(=O)NN5CCOCC5)cccc3-4)s2)C1 ?
Reply: > 300 °C

Task item: Would you mind telling me what melting point value was observed for Cn1ccc2cc(NC(=O)c3cc4ccccc4n3Cc3cccc(C(F)(F)F)c3)ccc21 ?
Reply: 189 to 190 °C

Task item: Would you mind telling me what melting point value was observed for CCCC1=C(C#N)C(c2ccccc2Cl)c2c(n[nH]c2-c2cccc3ccccc23)N1 (stereo not given) ?
Reply: 254 °C

Task item: Would you mind telling me what melting point value was observed for CCCCCCCCCc1ccc(C(=O)CC(=O)C(=O)O)cc1 ?
Reply: 90 to 91 °C

Task item: Would you mind telling me what melting point value was observed for CCNC(=N)N(C(=N)NCC)c1cc(C(C)(C)C)c2c(c1)C(C)(C)CO2 ?
Reply: > 290 °C
